Each recorded value in this set is attributed to ChEMBL document CHEMBL3988442.

test system: Wolbachia pipientis; assay: Anti-Wolbachia Cell-Based Screen; format: functional; design: scale not given: in the data most compounds retested in dose-response had high values; details: 5 µM
Out of some 48,000 compounds screened, about 13,000 (27%) showed an effect of 50% or more. Some of the results follow.
readout-name: Percent Effect (%)
Number in %, nothing else.

The reported value for CS(=O)(=O)N1CC(c2ncn3ccccc23)C1 in terms of Percent Effect is 16

What the record says about CC(NC(=O)NCc1cc(Br)cs1)c1ccccn1 (stereo not given) : Percent Effect is 100.4

# Percent Effect of Cc1ccc(C(CNCc2ccc(C#N)cc2)N2CCOCC2)s1 (stereo not given) = 1.867

Percent Effect for CCN1CC(C(=O)NCc2nn(CC)c3ccccc23)CCC1=O (stereo not given) is 10.79

The compound listed as Cc1cc(CN(C)C(=O)C(c2cccnc2)N2CCOCC2)n[nH]1 (stereo not given) has a reported Percent Effect of -3.091

// sample CN(C)c1nccc(C2CN(S(C)(=O)=O)C2)n1 , its Percent Effect was 62.66

Looking up Cc1nn(C)c2nc(N(Cc3ccccc3)CC3CCCO3)sc12 (stereo not given) , I see its Percent Effect listed as 6.104

// Percent Effect lookup, compound = Cc1ccc(C(=O)N2CCc3c(CNS(C)(=O)=O)cncc3C2)o1.Cl , result: -12.96

Recorded result, CCn1cnnc1C1CCN(C(=O)c2cc(F)ccc2OC)CC1 , Percent Effect: 106.7

Looking up Cc1ccc(C(=O)N2CCc3c(CNc4ncccn4)cncc3C2)o1.Cl , I see its Percent Effect listed as 96.21

// field: Percent Effect; key: O=C(NCC1SCCc2ccccc21)c1cscn1 (stereo not given) ; value = 1.343

// field: Percent Effect; key: CC(NC(=O)NCc1ccccc1Cl)c1ccccn1 (stereo not given) ; value = 111.7

Briefly, Percent Effect measured for O=c1oc(-c2ccc(F)cc2)nn1CN1CCN(CC2CC2)CC1 : 89.16

Quick note, Percent Effect for CCNC(=O)NCc1ccc(CN2CCCC(C)C2)cc1 (stereo not given) landed at -3.525

For record CCNC(=O)NCc1nn(CCN2CCCC2)c(=O)c2ccccc12 the listed Percent Effect is 106.7

For CCn1nc(CNC(=O)C2CCCN(CC(N)=O)C2)c2ccccc21 (stereo not given) the compound record lists Percent Effect as 4.996

Entry CCn1cnnc1C1CCN(C(=O)c2ccccc2OC)CC1 ; Percent Effect = -6.439

Reported Percent Effect of Cc1nccc(C2CN(S(=O)(=O)N(C)C)C2)n1 : 92.05

# compound COc1ccc(CC(=O)N2CCC(c3nncn3C)CC2)cc1F ; its Percent Effect = -9.824

Input CCn1cnnc1C1CCN(C(=O)COc2ccccc2OC)CC1 . Output Percent Effect: 7.042

In plain terms, COCC(=O)NCc1nn(CCN2CCCC2)c(=O)c2ccccc12 has a documented Percent Effect of 112.1

Just so you know, measured Percent Effect for CN(C)S(=O)(=O)NCc1nn(CCN2CCCC2)c(=O)c2ccccc12 came out at 91.81

The compound identified as Cc1noc(C2CN(S(C)(=O)=O)Cc3ccnn3C2)n1 (stereo not given) registered its Percent Effect at -9.743

Recorded Percent Effect (compound CC(NC(=O)N(C)Cc1ccc(Cl)s1)c1ccccn1 (stereo not given) ): 6.324

Noted for CC(=O)Nc1ccc(CN2CCc3[nH]cnc3C2c2ccc(C)o2)cc1 (stereo not given) : its Percent Effect reads -0.8872

====

system: Wolbachia pipientis; test: Anti-Wolbachia Cell-Based Screen; format: functional; parameters: scale not given: in the data most compounds retested in dose-response had high values; conditions: 5 µM
About 13,000 (27%) of roughly 48,000 compounds showed an effect of 50% or more. The list shows a part of the results.
readout-name: Percent Effect

Field Percent Effect (entry CC(=O)Nc1ccc(CNC(=O)CNCc2nnc(C)o2)cc1 ) reads -22.07%

Entry under test: O=C(N1CCCC1)N1CCC2(CC1)CN(c1cccnc1)C(=O)CO2.O=C(O)C(F)(F)F . Its Percent Effect was 93.48%

For reference, reported Percent Effect for Cc1ccc(N2CCC3(CC2)CC(OCC(C)C)C3)nn1.O=C(O)C(F)(F)F stands at -76.25%

// field: Percent Effect; key: COc1c(C2CCCN2c2ncnc3c2CCC3)c(C)nn1C (stereo not given) ; value = -10.62%

Reported Percent Effect ( Cc1nc(C2CCCN2Cc2cc(Cl)c3c(c2)OCCCO3)no1 (stereo not given) ) = -4.62%

Form field Percent Effect, entry CN1CCN(C(=O)[C@H]2C[C@@H]3CN(c4ncc(F)cn4)C[C@@H]3N2C)CC1.O=C(O)C(F)(F)F.O=C(O)C(F)(F)F.O=C(O)C(F)(F)F : 6.01%

Value of measured Percent Effect for the entry CS(=O)(=O)N1CCC(C(=O)N2CCN(Cc3cccc(Cl)c3)CC2)CC1 : -5.012%

The recorded Percent Effect for CCS(=O)(=O)N1CCC2(CN(c3cccc(F)c3)C(=O)CN2C)C1.O=C(O)C(F)(F)F (stereo not given) is 7.629%

Lab book: Percent Effect of CCS(=O)(=O)N1CCC2(CC1)CN(c1cccnc1)C(=O)CO2.O=C(O)C(F)(F)F noted as 93.05%

Record O=C(Nc1cnccn1)[C@@H]1C[C@H]2OCC[C@H]2N(c2ncc(F)cn2)C1 . Reported Percent Effect: -10.05%

GET /value?item= CCS(=O)(=O)Nc1ccn(Cc2cccc(Cl)c2)n1 &field=Percent Effect returns -21.52%

// Percent Effect lookup, compound = Cc1ccc(N2CCCC3(CCCC(=O)N3)C2)nn1.O=C(O)C(F)(F)F (stereo not given) , result: -15.09%

CC(C)N(C)S(=O)(=O)N(C)Cc1cnn(Cc2ccccc2)c1 has a reported Percent Effect of -14.36%

Briefly, Percent Effect measured for CS(=O)(=O)Nc1cnn(Cc2cccc(Cl)c2)c1 : 81.71%

compound O=C(C1=CCCCC1)N1CCC2(CC1)COC(COc1ccccn1)C2.O=C(O)C(F)(F)F (stereo not given) , Percent Effect observed: -10.4%

The recorded Percent Effect for O=C(C1CC=CC1)N1C[C@H]2CN(Cc3ccncc3)C(=O)[C@H]2C1.O=C(O)C(F)(F)F is 103%

Sure, the documented Percent Effect for Clc1ccccc1-c1nnc(CSCCN2CCOCC2)o1 is -8.486%

Percent Effect for COc1ccccc1CC(=O)NCCCN1CCCC1C(=O)N(C)C (stereo not given) is -7.215%

Measured Percent Effect of CN(C)C(=O)[C@H]1CO[C@H]2CCN(c3ncc(F)cn3)C[C@H]2C1.O=C(O)C(F)(F)F : 120.2%

Data point: CCN1C[C@@H]2CN(C(=O)C3CC=CC3)C[C@@H]2C1=O ; Percent Effect = 14.39%

====

tested on: Wolbachia pipientis; experiment: Anti-Wolbachia Cell-Based Screen; type: functional; set-up: scale not given: in the data most compounds retested in dose-response had high values; conditions: 5 µM
Among all 48,000 compounds or so, about 13,000 (27%) showed an effect of 50% or more. This is one part of the list.
readout-name: Percent Effect (%)
Express the result in % but write the number alone.

Note to self: Percent Effect recorded for COCC1CC2(CCN(C(=O)c3occc3C)CC2)CO1 (centres undefined) was -1.906

Measured Percent Effect of Cn1cc(CNC(=O)Nc2ccc(S(=O)(=O)C(F)F)cc2)cn1 : -23.54

Record summary for O=C(c1cncc(Br)c1)N1CCC(O)(Cn2ccc3ccncc32)CC1 : reported Percent Effect = -1.363

Data point: Cc1csc(CN2CCC3(CC2)COC(COc2ccccn2)C3)n1 (centres undefined) ; Percent Effect = 106.5

Item: CC(O)CN1CCc2onc(C(c3ccccc3)c3ccccc3)c2C1 (centres undefined) | Percent Effect: -15.19

Just so you know, measured Percent Effect for Cn1ccc(NC(=O)Cc2cccc(F)c2)n1 came out at -26.85

What the record says about CN(CCNC(=O)Nc1cnn(C)c1)Cc1ccc(F)cc1 : Percent Effect is 113

Per the record, O=C(c1[nH]nc2c1CCCC2)N1CCC(OCCN2CCCCC2)C1 (centres undefined) has Percent Effect of 5.05

Percent Effect for CCc1nnc(CN(C)Cc2cccc(C(=O)Nc3cnn(C)c3)c2)o1 is -6.481

So for CN(CCNC(=O)Nc1nccs1)Cc1ccc(F)cc1 , the logged Percent Effect turned out to be 98.5

Percent Effect for COc1cccc(CN2CCC(CO)(Cc3ccc(Cl)cc3)CC2)c1O is -4.953

Noted for CC(CS(C)(=O)=O)N(C(=O)Nc1ccc(F)cc1F)C1CC1 (centres undefined) : its Percent Effect reads 2.637

Form: molecule = C[S+]([O-])c1nncn1CC(=O)c1ccc2c(c1)CCO2 (centres undefined) ; Percent Effect = -1.094

Lab note: measured Percent Effect of CN(C)C(=O)c1nc(CN2C(=O)OC[C@@H]2c2ccccc2)no1 was 1.255

Note to self: Percent Effect recorded for CC(C)(C)c1cnc(CN2CCC(NC(=O)NC3CCCCC3)CC2)o1 was -3.337

Reported Percent Effect ( Oc1ccccc1-c1cc(-c2nc(C3CC3)n[nH]2)[nH]n1 ) = -8.043

Query COCCCC1(CO)CCCN(Cc2nccs2)C1 (centres undefined) yields Percent Effect of 3.777

So for COCC1CC2(CCN(C(=O)c3ccc(F)cc3C)CC2)CO1 (centres undefined) , the logged Percent Effect turned out to be 14.78

Percent Effect measured on CCc1nnc(CN(C)Cc2cccc(C(=O)Nc3nccs3)c2)o1 = -6.732

What the record says about CC(C)CS(=O)(=O)CCNC(=O)Nc1cccc2ncccc12 : Percent Effect is 3.388

For record Cc1cc(CNC(=O)c2ccc(C(C)N3CCCCC3)o2)[nH]n1 (centres undefined) the listed Percent Effect is -3.545

Lab book: Percent Effect of c1cc(-c2nc3c(c(NCCn4ccnn4)n2)CCNCC3)ccn1 noted as -0.7039

Percent Effect recorded for this molecule, c1ccc(C2CN(C3CC3)CC3(CCN(Cc4cscn4)CC3)C2)cc1 (centres undefined) , is -14.1

Record summary for CCN(C)C(=O)CCC(=O)c1cccs1 : reported Percent Effect = 14.3
